system: SKBr3 Her2 cytoblot, chemiluminescence, 24 h; test: reduction of cellular Her2 levels – SKBr3 cells, cytoblot, chemiluminescence, mechanism study for Hsp90 inhibitor project, dose response (AID 754); conditions: top dose 60 µM
Active and inactive are the calls of the source.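 The calls were made as follows: active = IC50 for lowering Her2 protein in breast cancer cells at or below a set limit; inactive = IC50 above that limit.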
Outcome codes: active, inactive

molecule: Nc1ccc(NS(=O)(=O)c2ccccc2)c(O)c1
classification: inactive

molecule: Nc1cccc(S(=O)(=O)Nc2ccc(O)c(-c3ccccc3O)c2)c1
classification: inactive

molecule: O=[N+]([O-])c1cccc(S(=O)(=O)Nc2ccc(O)c(-c3ccccc3O)c2)c1
classification: inactive

molecule: CCOc1ccc2ccccc2c1-c1cc(NS(=O)(=O)c2cc(Cl)ccc2Cl)ccc1NC(=O)OC(C)(C)C
classification: inactive

molecule: Nc1ccc(NS(=O)(=O)c2ccccc2[N+](=O)[O-])cc1-c1ccccc1O
classification: inactive

molecule: COc1ccc2c(c1-c1cc(NS(=O)(=O)c3cc(Cl)ccc3Cl)ccc1N)OCO2
classification: inactive

molecule: N#Cc1cc(S(=O)(=O)Nc2cc(O)cc3cccnc23)ccc1F
classification: inactive

molecule: Nc1cccc(S(=O)(=O)Nc2ccc(N)c(-c3ccccc3O)c2)c1
classification: inactive

molecule: Cc1ccc(S(=O)(=O)Nc2ccc(N)c(-c3ccccc3O)c2)cc1
classification: inactive

molecule: COc1ccc2c(c1-c1cc(NS(=O)(=O)c3cccc(N)c3)ccc1N)OCO2
classification: inactive

molecule: O=S(=O)(Nc1cc(O)cc2cccnc12)c1ccc(F)cc1
classification: inactive

molecule: COc1ccc(NS(=O)(=O)c2ccccc2)c(OC)c1
classification: inactive

molecule: O=S(=O)(Nc1ccc(O)c(-c2ccccc2O)c1)c1cc(Cl)ccc1Cl
classification: inactive

molecule: Nc1ccc(NS(=O)(=O)c2cccc([N+](=O)[O-])c2)cc1-c1ccccc1O
classification: inactive

molecule: Nc1ccc(NS(=O)(=O)c2cc(Cl)ccc2Cl)cc1-c1ccccc1O
classification: inactive

molecule: COc1ccc(C2CC(c3ccccc3O)=NN2)cc1OC (stereo not given)
classification: inactive

molecule: COc1ccc2c(c1-c1cc(NS(=O)(=O)c3cccc([N+](=O)[O-])c3)ccc1N)OCO2
classification: inactive

molecule: COc1ccc(S(=O)(=O)Nc2ccc(N)c(-c3ccccc3O)c2)cc1OC
classification: inactive

molecule: Cc1ccc(S(=O)(=O)Nc2ccc(O)c(-c3ccccc3O)c2)cc1
classification: inactive

molecule: NCc1cc(S(=O)(=O)Nc2cc(O)cc3cccnc23)ccc1F
classification: active

molecule: COc1cc(C2CC(c3ccccc3O)=NN2)ccc1O (stereo not given)
classification: inactive

molecule: O=S(=O)(Nc1ccc(Cl)cc1O)c1ccccc1
classification: inactive

molecule: Nc1ccc(NS(=O)(=O)c2ccccc2N)cc1-c1ccccc1O
classification: inactive

molecule: CCOc1ccc2ccccc2c1-c1cc(NS(=O)(=O)c2cc(Cl)ccc2Cl)ccc1N
classification: inactive

molecule: CCOc1ccc2ccccc2c1-c1cc(NS(=O)(=O)c2ccc(OC)c(OC)c2)ccc1N
classification: inactive

molecule: CC(C)(C)OC(=O)Nc1cccc(NS(=O)(=O)c2cc(Cl)ccc2Cl)c1-c1ccccc1O
classification: inactive

molecule: CCOc1ccc2ccccc2c1-c1cc(NS(=O)(=O)c2ccc(C)cc2)ccc1N
classification: inactive

molecule: O=[N+]([O-])c1ccc(NS(=O)(=O)c2ccccc2)c(O)c1
classification: inactive

molecule: COc1ccc(S(=O)(=O)Nc2ccc(O)c(-c3ccccc3O)c2)cc1OC
classification: inactive

molecule: COc1ccc2c(c1-c1cc(NS(=O)(=O)c3ccc(C)cc3)ccc1N)OCO2
classification: inactive

====

tested on: SKBr3 Her2 cytoblot, chemiluminescence, 24 h; assay: reduction of cellular Her2 levels – SKBr3 cells, cytoblot, chemiluminescence, mechanism study for Hsp90 inhibitor project, dose response (AID 754); conditions: top dose 30 µM
Activity calls are given as the source filed them.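 The calls were made as follows: active = IC50 for lowering Her2 protein in breast cancer cells at or below a set limit; inactive = IC50 above that limit.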
Labels: active, inactive

smi: COc1cccc2c1C(=O)c1c(O)c3c(c(O)c1C2=O)C[C@@](O)(C(C)=O)C[C@@H]3O[C@H]1C[C@H](N)[C@H](O)[C@H](C)O1
tgt: SKBr3 Her2 cytoblot, chemiluminescence, 24 h
classification: active
//
smi: N#Cc1c(N2CCCC2)nc(N)c2c(N)nc(N3CCCC3)cc12
tgt: SKBr3 Her2 cytoblot, chemiluminescence, 24 h
classification: inactive
//
smi: CCn1nc(-c2cccs2)nc2c(=O)n(C)c(=O)nc1-2
tgt: SKBr3 Her2 cytoblot, chemiluminescence, 24 h
classification: active
//
smi: C[C@H]1CCCC(=O)CCCCCc2cc(O)cc(O)c2C(=O)O1
tgt: SKBr3 Her2 cytoblot, chemiluminescence, 24 h
classification: inactive
//
smi: Oc1ccc(-c2nc(-c3ccc(O)c(O)c3)cs2)cc1
tgt: SKBr3 Her2 cytoblot, chemiluminescence, 24 h
classification: inactive
//
smi: CCn1c(CSc2nnc(-c3cccnc3)n2-c2ccccc2C)nc2cc(C(=O)O)ccc21
tgt: SKBr3 Her2 cytoblot, chemiluminescence, 24 h
classification: active
//
smi: CCn1c(CSc2nnc3ccccn23)nc2cc(C(=O)O)ccc21
tgt: SKBr3 Her2 cytoblot, chemiluminescence, 24 h
classification: inactive
//
smi: C[C@H]1CCC[C@H](O)CCCCCc2cc(O)cc(O)c2C(=O)O1
tgt: SKBr3 Her2 cytoblot, chemiluminescence, 24 h
classification: active
//
smi: COc1cccc2c1C(=O)c1c(O)c3c(c(O)c1C2=O)C[C@@](O)(C(=O)CO)C[C@@H]3O[C@H]1C[C@H](N)[C@H](O)[C@H](C)O1
tgt: SKBr3 Her2 cytoblot, chemiluminescence, 24 h
classification: inactive

====

system: SKBr3 Her2 cytoblot, chemiluminescence, 24 h; experiment: reduction of cellular Her2 levels – SKBr3 cells, cytoblot, chemiluminescence, mechanism study for Hsp90 inhibitor project, dose response (AID 754); settings: top dose 30 µM
Activity calls are given as the source filed them.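 The calls were made as follows: active = IC50 for lowering Her2 protein in breast cancer cells at or below a set limit; inactive = IC50 above that limit.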
Labels: yes (1) = active, no (0) = inactive

compound: CCn1nc(-c2ccccc2)nc2c(=O)n(C)c(=O)nc1-2
tgt: SKBr3 Her2 cytoblot, chemiluminescence, 24 h
classification: yes (1)
--
compound: Cc1c(-c2nn(C)c(=O)c3ccccc23)oc2ccc(F)cc2c1=O
tgt: SKBr3 Her2 cytoblot, chemiluminescence, 24 h
classification: no (0)
--
compound: Cn1ncnc2c(=O)n(C)c(=O)nc1-2
tgt: SKBr3 Her2 cytoblot, chemiluminescence, 24 h
classification: yes (1)
--
compound: CCc1cc(-c2[nH]ncc2-c2ccc3c(c2)OCO3)c(O)cc1O
tgt: SKBr3 Her2 cytoblot, chemiluminescence, 24 h
classification: no (0)
--
compound: CC(Cc1ccc(O)c(O)c1)C(C)Cc1ccc(O)c(O)c1 (stereo unspecified)
tgt: SKBr3 Her2 cytoblot, chemiluminescence, 24 h
classification: no (0)
--
compound: O=C1c2ccccc2-c2onc3ccc(NCCCn4ccnc4)c1c23
tgt: SKBr3 Her2 cytoblot, chemiluminescence, 24 h
classification: no (0)
